Source listed as ChEMBL document CHEMBL1152261.

# target_entity: Insulin receptor (Homo sapiens, UniProt P06213)
# Sequence (P06213 28-758 limits assumed): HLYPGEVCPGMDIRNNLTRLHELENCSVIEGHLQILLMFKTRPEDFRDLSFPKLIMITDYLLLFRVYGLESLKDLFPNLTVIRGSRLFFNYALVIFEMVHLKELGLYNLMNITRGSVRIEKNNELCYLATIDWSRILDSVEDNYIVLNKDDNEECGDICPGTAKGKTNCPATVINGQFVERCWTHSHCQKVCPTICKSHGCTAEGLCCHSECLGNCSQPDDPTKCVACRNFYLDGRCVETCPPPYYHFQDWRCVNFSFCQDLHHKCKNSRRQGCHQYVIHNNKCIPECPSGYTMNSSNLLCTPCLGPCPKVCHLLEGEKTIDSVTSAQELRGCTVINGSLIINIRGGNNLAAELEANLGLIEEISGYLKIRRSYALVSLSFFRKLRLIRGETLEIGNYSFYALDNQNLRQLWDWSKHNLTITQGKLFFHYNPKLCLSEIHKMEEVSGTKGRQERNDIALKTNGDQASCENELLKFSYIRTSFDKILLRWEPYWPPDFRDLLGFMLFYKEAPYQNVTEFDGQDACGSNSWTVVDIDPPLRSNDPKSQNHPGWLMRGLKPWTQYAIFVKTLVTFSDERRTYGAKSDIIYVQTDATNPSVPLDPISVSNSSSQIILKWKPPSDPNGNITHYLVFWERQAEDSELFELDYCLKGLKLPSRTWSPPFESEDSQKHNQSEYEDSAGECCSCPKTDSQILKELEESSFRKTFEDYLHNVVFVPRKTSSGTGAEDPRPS
# Sequence (P06213 763-1382 limits assumed): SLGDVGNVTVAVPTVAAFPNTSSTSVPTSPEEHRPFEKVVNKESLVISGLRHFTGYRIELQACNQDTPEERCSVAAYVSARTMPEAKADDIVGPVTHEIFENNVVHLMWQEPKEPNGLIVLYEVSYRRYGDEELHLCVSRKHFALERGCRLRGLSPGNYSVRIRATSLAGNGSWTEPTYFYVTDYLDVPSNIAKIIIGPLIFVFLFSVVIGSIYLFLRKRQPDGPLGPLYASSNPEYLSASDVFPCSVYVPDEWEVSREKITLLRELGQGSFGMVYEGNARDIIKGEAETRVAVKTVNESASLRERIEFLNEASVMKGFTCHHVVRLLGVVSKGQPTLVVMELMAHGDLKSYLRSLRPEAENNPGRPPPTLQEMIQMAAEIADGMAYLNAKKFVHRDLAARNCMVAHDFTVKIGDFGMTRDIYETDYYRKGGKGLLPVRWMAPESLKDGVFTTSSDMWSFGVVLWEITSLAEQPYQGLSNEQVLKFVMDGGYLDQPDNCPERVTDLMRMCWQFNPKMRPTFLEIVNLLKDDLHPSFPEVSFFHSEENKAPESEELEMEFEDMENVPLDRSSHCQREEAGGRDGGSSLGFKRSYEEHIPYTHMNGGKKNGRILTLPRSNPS
# run_description: Inhibition of IRK by DELPHIA
Kindly supply the reported pIC50 values for the records listed here.
One number for each entry, as −log10 of the molar value.

Consider the reported pIC50 for these compounds:
| smiles_str | pIC50 |
| --- | --- |
| C=Cc1ccc(C(=O)Nc2nc3cc(N(C)C(=O)c4ccccc4)ccc3n2CCC(N)=O)s1 | 6.32 |
| CN(C(=O)c1ccccc1)c1ccc2c(c1)[nH]/c(=N\C(=O)c1ccc(/C=C/c3cccc([N+](=O)[O-])c3)s1)n2CCC(N)=O | 5.37 |
| CN(C(=O)c1ccccc1)c1ccc2c(c1)nc(NC(=O)c1ccc(/C=C/c3ccc(N)cc3)s1)n2CCC(N)=O | 5.48 |

Field: pIC50. Fill in for each record below.
1. C/C(=C\C#N)c1ccc(C(=O)/N=c2\[nH]c3cc(N(C)C(=O)c4ccccc4)ccc3n2CCC(N)=O)s1
2. CN(C(=O)c1ccccc1)c1ccc2c(c1)[nH]/c(=N\C(=O)c1ccc(/C=C/c3ccccc3N)s1)n2CCC(N)=O
3. CN(C(=O)c1ccccc1)c1ccc2c(c1)[nH]/c(=N\C(=O)c1ccc(/C=C/c3cccc(N)n3)s1)n2CCC(N)=O
4. CN(C(=O)c1ccccc1)c1ccc2c(c1)[nH]/c(=N\C(=O)c1ccc(/C=C/c3cccc(N)c3)s1)n2CCC(N)=O
5. COC(=O)/C=C(\C)c1ccc(C(=O)/N=c2\[nH]c3cc(N(C)C(=O)c4ccccc4)ccc3n2CCC(N)=O)s1
6. CN(C(=O)c1ccccc1)c1ccc2c(c1)[nH]/c(=N\C(=O)c1ccc(/C=C/c3ncc(N)cn3)s1)n2CCC(N)=O
7. CN(C(=O)c1ccccc1)c1ccc2c(c1)[nH]/c(=N\C(=O)c1ccc(/C=C/c3ccc(O)cc3)s1)n2CCC(N)=O

Return:
1. 5.35
2. 5.71
3. 5.42
4. 5.31
5. 5.44
6. 5.82
7. 5.66

Consider `CN(C(=O)c1ccccc1)c1ccc2c(c1)[nH]/c(=N\C(=O)c1ccc(/C=C/c3ccccc3)s1)n2CCC(N)=O` . Its measured pIC50 is 6.01
